Every entry's value here was drawn from PubChem BioAssay AID330.

System: P388 leukemia ip, CD2F1 mice, survival T/C
TEST METHOD NOTES: NCI In Vivo Anticancer Drug Screen. Data for tumor model P388 Leukemia (intraperitoneal) in CD2F1 (CDF1) mice
MEASUREMENT SETUP: endpoint: median survival time; dose: 100.0 mg/kg/injection; schedule: Q01DX009 (ip); vehicle: other; higher = longer survival
Toxic doses and inconclusive results are not listed.
MEASURED METRIC: T/C

Study these solved cases before continuing.
COMPOUND: CCNC(=O)N(Cc1ccccc1)Cc1ccccc1
T/C: 118 % of control

COMPOUND: CC1(OC(=O)c2ccc(Cl)cc2)CC(C)(C)[N+]([O-])=N1 (configuration not stated)
T/C: 96 % of control

COMPOUND: CCCCCCCCCCCCCCCCOc1ccc(C(=O)CC(=O)OC)cc1
T/C: 100 % of control

COMPOUND: COC1c2cc3ccccc3nc2-c2ccccc2C1(C)C (configuration not stated)
T/C: 93 % of control

COMPOUND: CCSC(=O)/C=C\C=[N+](/[O-])OC
T/C: 97 % of control

## Input Given the entry CC(C)(C)NC1/C(=C\c2ccccc2)C(=O)c2ccccc2C1(C)C (configuration not stated) , report its measured T/C.
## Output 110 % of control

## Input Given the entry O=C(NC(CCSSCCC(NC(=O)OCc1ccccc1)C(=O)O)C(=O)O)OCc1ccccc1 (configuration not stated) , report its measured T/C.
## Output 100 % of control
